Exercise: for every item that follows, state its recorded Kd.
- targetDesc: T1, RCD1-RST(499-572) (Arabidopsis thaliana, UniProt Q8RY59 499-572)
- T1 construct: also called AtRCD1-RST; αα-hub RCD1-RST; source: E. coli BL21(DE3), purified (Source 15S cation exchange, Superdex 75 SEC)
- T1 sequence (looked up): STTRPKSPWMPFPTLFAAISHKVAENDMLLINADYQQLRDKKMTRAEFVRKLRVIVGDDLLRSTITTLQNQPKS
- experimentalProtocol: stopped-flow fluorescence spectroscopy; 0.1 µM FITC-DREB2A peptide mixed with 1-6 µM RCD1-RST(499-572) (kon); preformed complex 1:0.1 µM displaced with 5-60 µM unlabelled DREB2A(244-272) (koff); Kd from the rate constants; 10 °C, 50 mM HEPES pH 7.4, 100 mM NaCl
- reportedConditions: both partners purified
Primed or numbered codes have the meaning given here. FITC′ = fluorescein isothiocyanate
Form field: result (number plus unit)

Lab note: measured Kd of {FITC′}-NDVDQSHLDSSDMFDVDELLRLLNGDD-NH2 (peptide, UniProt O82132 246-272, looked up, also: acetylation stated, site not given here, also called fluorescently labeled DREB2A(244-272)-D267L; DREB2A-D267L; source: synthetic peptide, bought: TAG Copenhagen A/S (>98% purity)) [FITC-DREB2A(246-272) D267L] was 0.13 nM

Please fill in: Kd reported for {FITC′}-NDVDQSHLDSSDMFDVDELLADLNGDD-NH2 (peptide, UniProt O82132 246-272, looked up, also: acetylation stated, site not given here, also called DREB2A-R266A; DREB2A(244-272) variant R266A; source: synthetic peptide, bought: TAG Copenhagen A/S (>98% purity)) [FITC-DREB2A(246-272) R266A] = 1.5 nM

For this binder ( {FITC′}-NDVDQSHLDSSDMFDVDELLRALNGDD-NH2 (peptide, UniProt O82132 246-272, looked up, also: acetylation stated, site not given here, also called DREB2A-D267A; DREB2A(244-272) variant D267A; source: synthetic peptide, bought: TAG Copenhagen A/S (>98% purity)) [FITC-DREB2A(246-272) D267A] ), measured Kd is 0.32 nM

Data point: {FITC′}-NDVDQSHLDSSDMFDVDELLGDLNGDD-NH2 (peptide, UniProt O82132 246-272, looked up, also: acetylation stated, site not given here, also called fluorescently labeled DREB2A(244-272)-R266G; DREB2A-R266G; source: synthetic peptide, bought: TAG Copenhagen A/S (>98% purity)) [FITC-DREB2A(246-272) R266G] ; Kd = 3 nM
